- System: UO-31 renal
- test_protocol: NCI tumour cell line growth inhibition, 48 h
Overview of reported TGI across a group of compounds:

compound	assay_system	TGI
CCCC(CCC)C(=O)OCC1(CO)C/C(=C\c2ccc(F)cc2)C(=O)O1 (centres undefined)	UO-31 renal	24.4 µM
CCCCCCCCCCCCCCCCOC[C@@H](COC(c1ccccc1)(c1ccccc1)c1ccccc1)O[P+](=S)OC (some centres undefined)	UO-31 renal	30.1 µM
CC(C)C1=CC23CCC4C(C)(C(=O)O)CCCC4(C)C2CC1C1C(=O)N(c2ccccc2)C(=O)C13 (centres undefined)	UO-31 renal	> 100 µM
Cc1cc(S(=O)(=O)Nc2nc(N)nc(N(C)C)n2)c(SCC(=O)O)cc1Cl	UO-31 renal	> 10 µM
CCC(CNc1cc(OC)cc2cccnc12)NC1CCCCC1 (centres undefined)	UO-31 renal	> 100 µM

Exercise: GET TGI where system = UO-31 renal and item = "CNC(=O)Cc1nc(-c2cccc(NS(=O)(=O)c3c(F)cccc3F)c2F)c(-c2ccnc(Nc3ccccc3)n2)s1"
Solution: 13.7 µM

Exercise: GET TGI where system = UO-31 renal and item = "CCOC(=N)CC(=O)c1ccccc1"
Solution: > 100 µM

Exercise: GET TGI where system = UO-31 renal and item = "FC(F)(F)c1cccc(-c2nc3ccccc3c3c2[C@@]2(N4CCCC4)CCCC[C@@H]32)c1"
Solution: 48.9 µM

Exercise: GET TGI where system = UO-31 renal and item = CN/N=C(\C)C(CN(C)C)C(c1ccccc1)c1c(O)c2ccccc2oc1=O (centres undefined)
Solution: > 100 µM

Exercise: GET TGI where system = UO-31 renal and item = "CCn1c(-c2cc3ccccc3cc2O)nn(C(=O)c2c(Cl)cccc2Cl)c1=S"
Solution: 24.8 µM

Exercise: GET TGI where system = UO-31 renal and item = CCOC(=O)C(Cc1cccn1C(=O)OC(C)(C)C)[N+](=O)[O-] (centres undefined)
Solution: 39.3 µM

Exercise: GET TGI where system = UO-31 renal and item = "O=C1OC(=O)c2cc(S(=O)(=O)c3ccc4c(c3)C(=O)OC4=O)ccc21"
Solution: > 100 µM

Exercise: GET TGI where system = UO-31 renal and item = "COc1c(O)cc2c(c1O)C(=O)/C(=C/c1ccc(O)cc1)CO2"
Solution: 65.1 µM

Exercise: GET TGI where system = UO-31 renal and item = "COc1ccc(OC)c(-c2cc(-c3ccc(Cl)cc3)nn2-c2ccc(S(=O)(=O)NC(C)=O)cc2)c1"
Solution: > 100 µM

Exercise: GET TGI where system = UO-31 renal and item = "O=C1C=CC(=O)c2cc(Sc3ccccc3)c(=O)ccc21"
Solution: 30.5 µM

Exercise: GET TGI where system = UO-31 renal and item = "COc1cccc(/C=C/C(=O)c2ccc(Cl)cc2Cl)c1"
Solution: > 50 µM

Exercise: GET TGI where system = UO-31 renal and item = "CC(=O)NC1=C[C@@H]([C@H]2COC(C)(C)O2)OC1=O"
Solution: > 100 µM

* * *

- Tested on: MOLT-4 leukemia
- test_protocol: NCI tumour cell line growth inhibition, 48 h; in the data active = GI50 below about 0.43 µM; inactive = the rest
Permitted responses: true (active), false (inactive)

Observe how each entry below is paired with its result.
In [3]: df
Out[3]:
                                   compound     assay_system  discrete_label
0  COc1ccc(OC)c(-c2cc(-c3ccc(Cl)cc3)nn2-c2ccc(S(=O)(=O)NC(C)=O)cc2)c1  MOLT-4 leukemia           false
1  CCCCCCCCCCC1OC([C@@H](O)CC[C@H](O)C2CC[C@@H](CCCCCCCC(O)CC3=CC(C)OC3=O)O2)CCC1O (some centres undefined)  MOLT-4 leukemia           false
2  O=C(Nc1ccc(-n2ccc3c(NC(=O)c4ccccc4)ncnc32)cc1)Nc1cccc(Cl)c1Cl  MOLT-4 leukemia           false

Continue with the next compound.
Exercise: Record request — test call for "Cn1c2ccc(Br)cc2c2c3c(c4c5ccccc5[nH]c4c21)C(=O)N(O)C3=O"
Solution: true

* * *

Overview of reported TGI across a group of molecules:
- System: HCC-2998 colon
- test_protocol: NCI tumour cell line growth inhibition, 48 h

Below, 5 molecules whose answers are already recorded.
>>> print(df.to_string())
                                   molecule       val
0      O=[N+]([O-])CCc1cccc([N+](=O)[O-])c1  > 100 µM
1  COc1ccc(C2SCC(=O)N2NC(=O)c2ccc(NC(C)=O)cc2)cc1 (stereo unspecified)  > 100 µM
2  COC(=O)C1[C@H](c2cc(OC)c(OC)c(OC)c2)OC(=O)C1(C(=O)OC)C(=O)c1ccc2c(c1)OCO2 (stereo partly specified)  > 100 µM
3  CC/C=C(\C(=C/CC)[N+](=O)[O-])[N+](=O)[O-]   34.4 µM
4                    CCOC(=N)CC(=O)c1ccccc1  > 100 µM

Here is the next item to consider.
Exercise: Fill in reported TGI for this entry: O=C(O)CC1NCc2cc3ccccc3nc21 (stereo unspecified)
Solution: > 100 µM

* * *

- Tested on: UACC-257 melanoma
- test_protocol: NCI tumour cell line growth inhibition, 48 h
result_type: GI50

Below, 3 molecules whose answers are already recorded.
                                   molecule       val
0  COc1ccc(/C=N\Nc2ccc([N+](=O)[O-])cn2)cc1OC  > 100 µM
1  COc1ccc(C(=O)c2cc3c(N)c(C(=O)Nc4ccc(C)cc4)sc3nc2C)cc1   20.4 µM
2  CCOC(=O)CC1C(COC(=O)NC)OC(n2cnc3c(NC(=O)Nc4ccccc4)ncnc32)C1O[Si](C)(C)C(C)(C)C (centres undefined)   20.8 µM

Here is the next item to consider.
Exercise: Fill in reported GI50 for this entry: "O=C(OCc1ncc(-c2ccc(C(F)(F)F)cc2)c(NC2CCCCCC2)n1)c1c(F)c(F)c(F)c(F)c1F"
Solution: 17.5 µM

* * *

Overview of reported TGI across a group of compounds:
- System: ACHN renal
- test_protocol: NCI tumour cell line growth inhibition, 48 h

>>> print(df.to_string())
                                   compound       val
0  O=[N+]([O-])c1cc2c(cc1/C=N/n1c(CO)nc3ccccc31)OCO2  > 100 µM
1  CCC(CNc1cc(OC)cc2cccnc12)NC1CCCCC1 (centres undefined)  > 100 µM
2       Cc1noc(NC2=CC(=O)C(=O)c3ccccc32)c1C  > 100 µM
3              O=c1c(=O)c2c(Br)sc(Br)c2c1=O   44.7 µM
4  Cc1cc(S(=O)(=O)Nc2nc(N)nc(N(C)C)n2)c(SCC(=O)O)cc1Cl   > 10 µM
5  CCCCCCCCCCCCCCCCCC(=O)OCC(COC(=O)CCCN)OC(=O)CCCN (centres undefined)  > 100 µM
6  O=C1OC(O)C(Oc2c(Cl)cccc2Cl)=C1Cl (centres undefined)   42.3 µM
7                       COC(=O)c1cnc(Cl)cn1  > 100 µM

Here is the next item to consider.
Exercise: Fill in reported TGI for this entry: O=C(Nc1cccc(O)c1)C(=O)C(C(=O)c1ccc(Cl)c(Cl)c1)C1OC(=O)c2ccccc21 (centres undefined)
Solution: 29.7 µM

* * *

- System: A549 NSCLC
- test_protocol: NCI tumour cell line growth inhibition, 48 h
Overview of reported TGI across a group of compounds:

Below, 3 compounds whose answers are already recorded.
In [3]: df
Out[3]:
                                   compound  assay_system  result_type       val
0  C=C1C(=O)O[C@@H]2C[C@]3(C)CC[C@]4(C)[C@H](CC[C@@H]5[C@@]6(C)CCC(=O)C(C)(C)[C@@H]6CC[C@]54C)[C@H]3[C@H]12    A549 NSCLC          TGI   46.9 µM
1  O=C(N/N=C1/C(=O)c2c3ccccc3cc3cccc1c23)c1ccccc1    A549 NSCLC          TGI  > 100 µM
2  CC(C)(C)C(=O)OCC1CCC(n2cnc3c(=O)[nH]c(N)nc32)O1 (centres undefined)    A549 NSCLC          TGI  > 100 µM

Exercise: Fill in reported TGI for this entry: "COc1ccc(OC)c(-c2cc(-c3ccc(Cl)cc3)nn2-c2ccc(S(=O)(=O)NC(C)=O)cc2)c1"
Solution: > 100 µM

* * *

- System: SK-MEL-2 melanoma
- test_protocol: NCI tumour cell line growth inhibition, 48 h; in the data active = GI50 below about 0.43 µM; inactive = the rest
Permitted responses: active, inactive

Observe how each entry below is paired with its result.
>>> df
                                   compound  discrete_label
0  CN1C(=O)N[C@H]2[C@@H]3NC(=O)c4ccc(Br)n4[C@@H]3C[C@]21O          active
1  CCOC(=O)CC1C(COC(=O)NC)OC(n2cnc3c(NC(=O)Nc4ccccc4)ncnc32)C1O[Si](C)(C)C(C)(C)C (stereo not drawn)        inactive
2  COc1ccc2c(c1)CC[C@H](O)/C2=C/c1cc(OC)c(OC)c(OC)c1        inactive

Exercise: Record request — test call for "NC(=O)c1cccc(Nc2nccc(Nc3cccc4[nH]ncc34)n2)c1"
Solution: inactive

Exercise: Record request — test call for "CCN(CC)CCCNC(=O)c1c2c(n3ccccc13)C(=O)c1ncccc1C2=O"
Solution: inactive
